# TGT: MAGE-A11:PCF11 interaction (GST-MAGE-A11 and FAM-PCF11_4) (Homo sapiens, UniProt P43364)
# Construct: GST-MAGE-A11 MHD (human MAGE-A11 MHD amino acid 218-429); made in house; host or cells: E. coli BL21(DE3)
# TEST PROTOCOL: TR-FRET primary / single point screen at 15 µM
# Assay type: binding
# CONDITIONS USED: single point TR-FRET screening of 797 quinoline compounds against MAGE-A11:PCF11
OBSERVATION TYPE: percent inhibition (TR-FRET)
Answer using only a numeral; do not append any unit.

These recorded examples may help you get a feel for the data.
Which percent inhibition (TR-FRET) is reported for this molecule? `FC(F)(F)c1ccccc1CN(CCCCNc1ccnc2cc(Cl)ccc12)Cc1ccccc1` 27.8155

Also need `O=S(=O)(c1ccccc1)c1cnc2ccc(F)cc2c1N1CCN(c2ccc(F)cc2)CC1` , thanks. -11.08

Also need `CCCCN(CCC)CCCNc1c2ccc(Cl)cc2nc2ccc(OC)cc12` , thanks. -286.942

Also need `O=S(=O)(c1ccc(Cl)cc1)c1cnc2ccc(F)cc2c1N1CCN(c2ccccc2)CC1` , thanks. 2.112

Also need `CCN1CCN(c2c(S(=O)(=O)c3ccc(C)c(C)c3)cnc3ccc(OC)cc23)CC1` , thanks. -4.579

Also need `Clc1ccc2c(NCCCCN(Cc3ccccc3)Cc3cccc4c3OCO4)ccnc2c1` , thanks. 21.6545

Also need `Cc1ccsc1CN(CCCCNc1ccnc2cc(Cl)ccc12)Cc1ccccc1` , thanks. 23.4378

In the following, a different molecule is considered.
Which percent inhibition (TR-FRET) is reported for this molecule? `CCCN(CCCNc1c2ccc(Cl)cc2nc2ccc(OC)cc12)Cc1c[nH]c2ccccc12` -166.235

###

# TGT: MAGE-A11:PCF11 interaction (GST-MAGE-A11 and FAM-PCF11_4) (Homo sapiens)
# Construct: GST-MAGE-A11 MHD (human MAGE-A11 MHD amino acid 218-429); made in house; host or cells: E. coli BL21(DE3)
# Sequence (P43364 218-429): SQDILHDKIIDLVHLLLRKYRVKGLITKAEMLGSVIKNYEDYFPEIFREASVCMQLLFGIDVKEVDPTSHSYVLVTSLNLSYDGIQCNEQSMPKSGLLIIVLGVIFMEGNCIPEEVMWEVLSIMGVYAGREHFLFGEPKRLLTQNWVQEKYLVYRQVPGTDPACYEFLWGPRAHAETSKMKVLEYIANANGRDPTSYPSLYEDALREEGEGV
# TEST PROTOCOL: TR-FRET primary / single point screen at 15 µM
# Format: binding
# CONDITIONS USED: single point TR-FRET screening of 797 quinoline compounds against MAGE-A11:PCF11
Parameter percent inhibition (TR-FRET): see the listing below.

These recorded examples may help you get a feel for the data.
Which percent inhibition (TR-FRET) is reported for this compound? CC(Nc1c2ccccc2nc2ccccc12)C(=O)NC(CC(N)=O)C(=O)O (centres unmarked) 22.7145

Also need `CCOC(=O)c1cnc2ccc(C(=O)O)cc2c1N1CCN(CCO)CC1` , thanks. -0.5958

Also need `CCCN(CCCNc1c2ccc(Cl)cc2nc2ccc(OC)cc12)Cc1ccsc1` , thanks. -258.026

Further cases:
Which percent inhibition (TR-FRET) is reported for this compound? `COc1ccc2nc3cc(Cl)ccc3c(NCCCNCc3ccc4[nH]ccc4c3)c2c1` -184.229

Also need `CCN(CC)CC(=O)Nc1c2c(nc3ccccc13)CCCC2` , thanks. 2.741

###

# TGT: MAGE-A11:PCF11 interaction (GST-MAGE-A11 and FAM-PCF11_4) (Homo sapiens, UniProt P43364)
# Construct: GST-MAGE-A11 MHD (human MAGE-A11 MHD amino acid 218-429); made in house; host or cells: E. coli BL21(DE3)
# TEST PROTOCOL: TR-FRET primary / single point screen at 15 µM
# Format: binding
# CONDITIONS USED: single point TR-FRET screening of 797 quinoline compounds against MAGE-A11:PCF11
OBSERVATION TYPE: percent inhibition (TR-FRET)
Answer using only a numeral; do not append any unit.

These recorded examples may help you get a feel for the data.
Which percent inhibition (TR-FRET) is reported for this molecule? `O=C(C[C@H]1CC[C@]2(CC1)OO[C@]1(O2)C2CC3CC(C2)CC1C3)NCCCCNc1ccnc2cc(Cl)ccc12` 25.1182

Also need COc1ccc2nc3cc(Cl)ccc3c(NCCCNCCC(C)c3ccccc3)c2c1 (centres unmarked) , thanks. -340.253

Also need `Clc1ccc2c(NCCCCN(Cc3ccccc3)Cc3cccc4ccccc34)ccnc2c1` , thanks. 26.4906

Also need `CCc1ccc(S(=O)(=O)c2cnc3ccccc3c2N2CCN(Cc3ccccc3)CC2)cc1` , thanks. -55.2584

Also need `Cc1ccc(S(=O)(=O)N2CCN(c3ccnc4cc(Cl)ccc34)CC2)cc1` , thanks. -38.6966

Also need `CCc1nc2ccccc2c(NC(=O)CN2CCN(c3ccccc3)CC2)c1C` , thanks. 6.8942

Also need `CCCN(CCCCNc1ccnc2cc(Cl)ccc12)CCCSC` , thanks. 3.903

In the following, a different molecule is considered.
Which percent inhibition (TR-FRET) is reported for this molecule? `CCCN(CCCNc1c2ccc(Cl)cc2nc2ccc(OC)cc12)Cc1ccc(-c2cccc(Cl)c2)o1` -169.736

###

Parameter log10 of IC50: see the listing below.
# TGT: MAGE-A11:PCF11 interaction (GST-MAGE-A11 MHD and FAM-PCF11_4) (Homo sapiens, UniProt P43364)
# Construct: GST-MAGE-A11 MHD (human MAGE-A11 MHD amino acid 218-429); made in house; host or cells: E. coli BL21(DE3)
# TEST PROTOCOL: TR-FRET dose response test of compounds for disruption of MAGE-A11:PCF11 binding
# CONDITIONS USED: Dose response TR-FRET screening of nine scaffold groups against MAGE-A11:PCF11; read-out: consensus IC50
Give log10 of IC50, with IC50 taken in µM.

These recorded examples may help you get a feel for the data.
Which log10 of IC50 is reported for this molecule? `COc1cccc(CNCCCNc2ccnc3cc(-c4cccc5ccccc45)ccc23)c1O` 1.20

Also need `Clc1ccc2c(NCCCNCc3ccc(-c4ccccc4)cc3)ccnc2c1` , thanks. 1.54

Also need `COc1cccc(CNCCCNc2ccnc3cc(Cc4ccc(F)cc4)ccc23)c1O` , thanks. 1.64

Further cases:
Which log10 of IC50 is reported for this molecule? `COc1ccc(F)cc1CNCCCNc1ccnc2cc(Oc3cccc(N(C)C)c3)ccc12` 0.75

Also need `O=C1C(Cl)=C(NCCN2CCOCC2)C(=O)c2ncccc21` , thanks. 0.35

Also need `COc1cccc(CNCCCNc2ccnc3cc(-c4ccc(C(C)(C)C)cc4)ccc23)c1O` , thanks. 0.67

Also need O=C1c2ccccc2NC(c2ccc(F)c(F)c2)N1CCCN1CCOCC1 (stereo not shown) , thanks. 1.77

Also need `CS(=O)(=O)c1ccc(C2=C(c3ccccc3)C(=O)OC2)cc1` , thanks. 1.83

###

# TGT: MAGE-A11:PCF11 interaction (GST-MAGE-A11 MHD and FAM-PCF11_4) (Homo sapiens, UniProt P43364)
# Construct: GST-MAGE-A11 MHD (human MAGE-A11 MHD amino acid 218-429); made in house; host or cells: E. coli BL21(DE3)
# TEST PROTOCOL: TR-FRET dose response test of compounds for disruption of MAGE-A11:PCF11 binding
# CONDITIONS USED: Dose response TR-FRET screening of nine scaffold groups against MAGE-A11:PCF11; read-out: consensus IC50
OBSERVATION TYPE: IC50 (µM)
Numbers only; they are read as µM.

These recorded examples may help you get a feel for the data.
Which IC50 is reported for this compound? `COc1ccc(F)cc1CNCCCNc1ccnc2cc(Cc3cc(C)cc(C)c3)ccc12` 9.04

Also need `COc1cccc(CNCCCNc2ccnc3cc(CC4CCCCC4)ccc23)c1O` , thanks. 29.2

Also need Cc1ccc(S(=O)(=O)c2nc(-c3ccccc3Cl)oc2N2CC(C)OC(C)C2)cc1 (centres unmarked) , thanks. 13

Also need `COc1cccc(CNCCCNc2ccnc3cc(CC(C)C)ccc23)c1O` , thanks. 68.5

Also need `COc1cccc(CNCCCNc2ccnc3cc(-c4ccc5c(c4)OCO5)ccc23)c1O` , thanks. 24.6

Also need `COc1ccc(F)cc1CNCCCNc1ccnc2cc(Oc3ccccc3)ccc12` , thanks. 29

Also need `COc1ccc(F)cc1CNCCCNc1ccnc2cc(Oc3ccc(Cl)cc3)ccc12` , thanks. 19.7

Further cases:
Which IC50 is reported for this compound? `c1ccc(-c2ccc3c(NCCCNCc4cccc5c4OCO5)ccnc3c2)cc1` 22.2
